species: Rattus norvegicus; assay: Open TG-GATES - Regimen: Daily Repeat; assay type: toxicity, organism-based, Sprague-Dawley; design: regimen Daily Repeat, gender Male, age 6 weeks; conditions: in vivo, po, 0 mg/kg, 72 h, tissue Plasma, route gavage, dose level Control, time 3 day
Overview of reported Cl across a group of compounds:
Measured Attribute: Cl (meq/L)

Cc1nnc2n1-c1ccc(Cl)cc1C(c1ccccc1Cl)=NC2 : 104.8
CC(C)NNC(=O)c1ccncc1 : 106.6
CN(C)CCC(c1ccc(Cl)cc1)c1ccccn1 (stereo not drawn) : 107.2
Brc1ccccc1 : 104.8
Nc1c2c(nc3ccccc13)CCCC2 : 107.2
O=C(OC[C@H]1O[C@@H](OC(=O)c2cc(O)c(O)c(OC(=O)c3cc(O)c(O)c(O)c3)c2)[C@H](OC(=O)c2cc(O)c(O)c(OC(=O)c3cc(O)c(O)c(O)c3)c2)[C@@H](OC(=O)c2cc(O)c(O)c(OC(=O)c3cc(O)c(O)c(O)c3)c2)[C@@H]1OC(=O)c1cc(O)c(O)c(OC(=O)c2cc(O)c(O)c(O)c2)c1)c1cc(O)c(O)c(OC(=O)c2cc(O)c(O)c(O)c2)c1 : 104.2
CCOc1ccc(NC(C)=O)cc1 : 105.6
NC1=NC(=O)C(c2ccccc2)O1 (stereo not drawn) : 105.8
CCCc1cc(=O)[nH]c(=S)[nH]1 : 103.4
CNC(=C[N+](=O)[O-])NCCSCc1ccc(CN(C)C)o1 : 103.8
CN/C(=N/CCSCc1nc[nH]c1C)NC#N : 102.8
COC(=O)C1=C(C)NC(C)=C(C(=O)OC)C1c1ccccc1[N+](=O)[O-] : 106
CN1C(=O)CCS(=O)(=O)C1c1ccc(Cl)cc1 (stereo not drawn) : 108.4

----------
Reported Na is given for each of the following compounds.
species: Rattus norvegicus; assay: Open TG-GATES - Regimen: Daily Repeat; format: toxicity, organism-based, Sprague-Dawley; set-up: regimen Daily Repeat, gender Male, age 6 weeks; conditions: in vivo, po, 0 mg/kg, 72 h, tissue Plasma, route gavage, dose level Control, time 3 day
Measured Attribute: Na (meq/L)

COC(=O)C1=C(C)NC(C)=C(C(=O)OC)C1c1ccccc1[N+](=O)[O-] : 144.8
CN1C(=O)CCS(=O)(=O)C1c1ccc(Cl)cc1 (stereo not drawn) : 143.4
Brc1ccccc1 : 141.8
O=C(OC[C@H]1O[C@@H](OC(=O)c2cc(O)c(O)c(OC(=O)c3cc(O)c(O)c(O)c3)c2)[C@H](OC(=O)c2cc(O)c(O)c(OC(=O)c3cc(O)c(O)c(O)c3)c2)[C@@H](OC(=O)c2cc(O)c(O)c(OC(=O)c3cc(O)c(O)c(O)c3)c2)[C@@H]1OC(=O)c1cc(O)c(O)c(OC(=O)c2cc(O)c(O)c(O)c2)c1)c1cc(O)c(O)c(OC(=O)c2cc(O)c(O)c(O)c2)c1 : 139.6
CN(C)CCC(c1ccc(Cl)cc1)c1ccccn1 (stereo not drawn) : 142.2
Cc1nnc2n1-c1ccc(Cl)cc1C(c1ccccc1Cl)=NC2 : 143.2
CC(C)NNC(=O)c1ccncc1 : 141.8
CN/C(=N/CCSCc1nc[nH]c1C)NC#N : 141.2
CCCc1cc(=O)[nH]c(=S)[nH]1 : 137.4
Nc1c2c(nc3ccccc13)CCCC2 : 142.8
CNC(=C[N+](=O)[O-])NCCSCc1ccc(CN(C)C)o1 : 140.4
CCOc1ccc(NC(C)=O)cc1 : 143.8
NC1=NC(=O)C(c2ccccc2)O1 (stereo not drawn) : 143

----------
species on record: Rattus norvegicus; assay: Open TG-GATES - Regimen: Single; type: toxicity, organism-based, Sprague-Dawley; set-up: regimen Single, gender Male, age 6 weeks; conditions: in vivo, po, 0 mg/kg, 3 h, tissue Plasma, route gavage, dose level Control
Property: BUN; scope: individual compounds
Measured Attribute: BUN (mg/dL)

CNC(=C[N+](=O)[O-])NCCSCc1ccc(CN(C)C)o1 : 10.8
O=C(OC[C@H]1O[C@@H](OC(=O)c2cc(O)c(O)c(OC(=O)c3cc(O)c(O)c(O)c3)c2)[C@H](OC(=O)c2cc(O)c(O)c(OC(=O)c3cc(O)c(O)c(O)c3)c2)[C@@H](OC(=O)c2cc(O)c(O)c(OC(=O)c3cc(O)c(O)c(O)c3)c2)[C@@H]1OC(=O)c1cc(O)c(O)c(OC(=O)c2cc(O)c(O)c(O)c2)c1)c1cc(O)c(O)c(OC(=O)c2cc(O)c(O)c(O)c2)c1 : 17
CCCc1cc(=O)[nH]c(=S)[nH]1 : 13.2
NC1=NC(=O)C(c2ccccc2)O1 (configuration not stated) : 9.8
CCOc1ccc(NC(C)=O)cc1 : 11.6
CN(C)CCC(c1ccc(Cl)cc1)c1ccccn1 (configuration not stated) : 9.2
Cc1nnc2n1-c1ccc(Cl)cc1C(c1ccccc1Cl)=NC2 : 10.6

----------
Reported CRE values follow for various compounds
organism: Rattus norvegicus; assay: Open TG-GATES - Regimen: Single; format: toxicity, organism-based, Sprague-Dawley; set-up: regimen Single, gender Male, age 6 weeks; conditions: in vivo, po, 0 mg/kg, 24 h, tissue Plasma, route gavage, dose level Control
Measured Attribute: CRE (mg/dL)

CS(=O)(=O)O.Cc1ccc(NC(=O)c2ccc(CN3CCN(C)CC3)cc2)cc1Nc1nccc(-c2cccnc2)n1 [IMATINIB MESYLATE] : 0.2
CC(C)NNC(=O)c1ccncc1 : 0.2
CN(C)CCC(c1ccc(Cl)cc1)c1ccccn1 (centres undefined) : 0.2
O=C(OC[C@H]1O[C@@H](OC(=O)c2cc(O)c(O)c(OC(=O)c3cc(O)c(O)c(O)c3)c2)[C@H](OC(=O)c2cc(O)c(O)c(OC(=O)c3cc(O)c(O)c(O)c3)c2)[C@@H](OC(=O)c2cc(O)c(O)c(OC(=O)c3cc(O)c(O)c(O)c3)c2)[C@@H]1OC(=O)c1cc(O)c(O)c(OC(=O)c2cc(O)c(O)c(O)c2)c1)c1cc(O)c(O)c(OC(=O)c2cc(O)c(O)c(O)c2)c1 : 0.5
CN1C(=O)CCS(=O)(=O)C1c1ccc(Cl)cc1 (centres undefined) : 0.2
COC(=O)C1=C(C)NC(C)=C(C(=O)OC)C1c1ccccc1[N+](=O)[O-] : 0.2
NC1=NC(=O)C(c2ccccc2)O1 (centres undefined) : 0.2
CCCc1cc(=O)[nH]c(=S)[nH]1 : 0.6
Nc1c2c(nc3ccccc13)CCCC2 : 0.2
CN/C(=N/CCSCc1nc[nH]c1C)NC#N : 0.4
Brc1ccccc1 : 0.2
CCOc1ccc(NC(C)=O)cc1 : 0.2
Cc1nnc2n1-c1ccc(Cl)cc1C(c1ccccc1Cl)=NC2 : 0.2
CNC(=C[N+](=O)[O-])NCCSCc1ccc(CN(C)C)o1 : 0.4

----------
species on record: Rattus norvegicus; assay: Open TG-GATES - Regimen: Daily Repeat; assay type: toxicity, organism-based, Sprague-Dawley; parameters: regimen Daily Repeat, gender Male, age 6 weeks; settings: in vivo, po, 100 mg/kg, […], tissue Blood, route gavage, dose level Low, time 14 day
Measured Attribute: Mono (%)

CNC(=C[N+](=O)[O-])NCCSCc1ccc(CN(C)C)o1 [RANITIDINE] : 2
CN/C(=N/CCSCc1nc[nH]c1C)NC#N [CIMETIDINE] : 2.2
Cc1nnc2n1-c1ccc(Cl)cc1C(c1ccccc1Cl)=NC2 [TRIAZOLAM] : 2.4
CCOc1ccc(NC(C)=O)cc1 [PHENACETIN] : 2
COC(=O)C1=C(C)NC(C)=C(C(=O)OC)C1c1ccccc1[N+](=O)[O-] [NIFEDIPINE] : 2.8
O=C(OC[C@H]1O[C@@H](OC(=O)c2cc(O)c(O)c(OC(=O)c3cc(O)c(O)c(O)c3)c2)[C@H](OC(=O)c2cc(O)c(O)c(OC(=O)c3cc(O)c(O)c(O)c3)c2)[C@@H](OC(=O)c2cc(O)c(O)c(OC(=O)c3cc(O)c(O)c(O)c3)c2)[C@@H]1OC(=O)c1cc(O)c(O)c(OC(=O)c2cc(O)c(O)c(O)c2)c1)c1cc(O)c(O)c(OC(=O)c2cc(O)c(O)c(O)c2)c1 [TANNIC ACID] : 6.8

----------
Form field: KIDNEY_L (one value per entry).
species: Rattus norvegicus; experiment: Open TG-GATES - Regimen: Single; assay type: toxicity, organism-based, Sprague-Dawley; design: regimen Single, gender Male, age 6 weeks; conditions: in vivo, po, 0 mg/kg, 24 h, tissue Kidney, route gavage, dose level Control
Measured Attribute: KIDNEY_L (g)

CS(=O)(=O)O.Cc1ccc(NC(=O)c2ccc(CN3CCN(C)CC3)cc2)cc1Nc1nccc(-c2cccnc2)n1 [IMATINIB MESYLATE] : 0.9
CC(C)NNC(=O)c1ccncc1 [IPRONIAZID] : 1
CN/C(=N/CCSCc1nc[nH]c1C)NC#N [CIMETIDINE] : 1
COC(=O)C1=C(C)NC(C)=C(C(=O)OC)C1c1ccccc1[N+](=O)[O-] [NIFEDIPINE] : 0.9
CNC(=C[N+](=O)[O-])NCCSCc1ccc(CN(C)C)o1 [RANITIDINE] : 1
CCOc1ccc(NC(C)=O)cc1 [PHENACETIN] : 1
NC1=NC(=O)C(c2ccccc2)O1 (centres undefined) [PEMOLINE] : 0.9
CN(C)CCC(c1ccc(Cl)cc1)c1ccccn1 (centres undefined) [CHLORPHENIRAMINE] : 0.9
Nc1c2c(nc3ccccc13)CCCC2 [TACRINE] : 0.9
CN1C(=O)CCS(=O)(=O)C1c1ccc(Cl)cc1 (centres undefined) [CHLORMEZANONE] : 1
Cc1nnc2n1-c1ccc(Cl)cc1C(c1ccccc1Cl)=NC2 [TRIAZOLAM] : 0.9
Brc1ccccc1 [BROMOBENZENE] : 0.8
O=C(OC[C@H]1O[C@@H](OC(=O)c2cc(O)c(O)c(OC(=O)c3cc(O)c(O)c(O)c3)c2)[C@H](OC(=O)c2cc(O)c(O)c(OC(=O)c3cc(O)c(O)c(O)c3)c2)[C@@H](OC(=O)c2cc(O)c(O)c(OC(=O)c3cc(O)c(O)c(O)c3)c2)[C@@H]1OC(=O)c1cc(O)c(O)c(OC(=O)c2cc(O)c(O)c(O)c2)c1)c1cc(O)c(O)c(OC(=O)c2cc(O)c(O)c(O)c2)c1 [TANNIC ACID] : 0.9
CCCc1cc(=O)[nH]c(=S)[nH]1 [PROPYLTHIOURACIL] : 0.8
